Every entry's value here was drawn from ChEMBL document CHEMBL2375335.

Target: Cytochrome P450 1A2 (Homo sapiens)
reportedMetric: IC50

Known results for compounds:
{"smi": "Cc1ccc(S(=O)(=O)Nc2cc(Oc3ccccc3)ccc2C(=O)O)cc1", "reportedMetric": "IC50", "valueReported": "> 30 µM"}
{"smi": "Cc1ccc(S(=O)(=O)Nc2ccc(Oc3ccccc3)cc2C(=O)O)cc1", "reportedMetric": "IC50", "valueReported": "1.8 µM"}

Observed IC50 on Cytochrome P450 1A2 (Homo sapiens) for "O=C(O)c1cc(Oc2ccccc2)ccc1NS(=O)(=O)c1ccc(Br)cc1F" , please. > 30 µM

====

// reported pIC50 for each item listed
Biological target: UniProt:P08684
Test: Inhibition of CYP3A4 (unknown origin)
Type: ADME
pIC50: −log10 of the molar value.

{"smi": "Cc1ccc(S(=O)(=O)Nc2cc(Oc3ccccc3)ccc2C(=O)O)cc1", "measuredOn": "UniProt:P08684", "valueReported": "< 4.52"}
{"smi": "O=C(O)c1cc(Oc2ccccc2)ccc1NS(=O)(=O)c1ccc(Br)cc1F", "measuredOn": "UniProt:P08684", "valueReported": 4.59}

Now look at this entry.
Could you share which pIC50 value was measured for "Cc1ccc(S(=O)(=O)Nc2ccc(Oc3ccccc3)cc2C(=O)O)cc1" ? < 4.52

====

// reported IC50 for each item listed
Target: RNA-directed RNA polymerase (Hepacivirus hominis, UniProt O39930, P495S)
Test: Inhibition of HCV genotype 1b isolate BK NS5B Cdelta21 RNA dependent RNA polymerase P495S mutant using [3H]UTP as substrate incubated for 25 mins prior to substrate addition measured after 120 mins by scintillation proximity assay
Returns: string containing the numeric result and its unit.

{"smi": "O=C(O)c1cc(Oc2ccccc2)ccc1NS(=O)(=O)c1ccc(Br)cc1F", "measuredOn": "RNA-directed RNA polymerase (Hepacivirus hominis, UniProt O39930, P495S)", "valueReported": "0.093 µM"}

Now look at this entry.
Could you share which IC50 value was measured for "Cc1ccc(S(=O)(=O)Nc2cc(Oc3ccccc3)ccc2C(=O)O)cc1" ? 0.077 µM

====

// reported IC50 for each item listed
Experiment: Inhibition of HCV genotype 1b isolate BK NS5B Cdelta21 RNA dependent RNA polymerase L419M mutant using [3H]UTP as substrate incubated for 25 mins prior to substrate addition measured after 120 mins by scintillation proximity assay
Parameters: species or system Hepatitis C virus (isolate BK)
Write the number in nM without appending the unit.

Could you share which IC50 value was measured for "Cc1ccc(S(=O)(=O)Nc2cc(Oc3ccccc3)ccc2C(=O)O)cc1" ? 1200

Could you share which IC50 value was measured for "Cc1ccc(S(=O)(=O)Nc2ccc(Oc3ccccc3)cc2C(=O)O)cc1" ? 1200

Could you share which IC50 value was measured for "O=C(O)c1cc(Oc2ccccc2)ccc1NS(=O)(=O)c1ccc(Br)cc1F" ? 1800

====

This document collects IC50 values reported for UniProt P33261.

{"smi": "O=C(O)c1cc(Oc2ccccc2)ccc1NS(=O)(=O)c1ccc(Br)cc1F", "IC50": "1.1 µM"}
{"smi": "Cc1ccc(S(=O)(=O)Nc2ccc(Oc3ccccc3)cc2C(=O)O)cc1", "IC50": "> 30 µM"}

Could you share which IC50 value was measured for "Cc1ccc(S(=O)(=O)Nc2cc(Oc3ccccc3)ccc2C(=O)O)cc1" ? 7.9 µM

====

This document collects pIC50 values reported for Cytochrome P450 2C9 (Homo sapiens, UniProt P11712).
Lab note — pIC50 values are minus log10 of concentrations in M.

Known results for compounds:
{"smi": "O=C(O)c1cc(Oc2ccccc2)ccc1NS(=O)(=O)c1ccc(Br)cc1F", "valueReported": 5.96}
{"smi": "Cc1ccc(S(=O)(=O)Nc2ccc(Oc3ccccc3)cc2C(=O)O)cc1", "valueReported": 5.52}

Observed pIC50 on Cytochrome P450 2C9 (Homo sapiens, UniProt P11712) for "Cc1ccc(S(=O)(=O)Nc2cc(Oc3ccccc3)ccc2C(=O)O)cc1" , please. 5.51

====

// reported solubility thermodynamic at 24 h for each item listed
Experiment: Solubility of the compound in buffer after 24 hrs at pH 7.2 by shake flask method
Format: physicochemical

{"smi": "Cc1ccc(S(=O)(=O)Nc2ccc(Oc3ccccc3)cc2C(=O)O)cc1", "solubility thermodynamic at 24 h": "> 900 µg/mL"}
{"smi": "Cc1ccc(S(=O)(=O)Nc2cc(Oc3ccccc3)ccc2C(=O)O)cc1", "solubility thermodynamic at 24 h": "> 700 µg/mL"}

Now look at this entry.
Could you share which solubility thermodynamic at 24 h value was measured for "O=C(O)c1cc(Oc2ccccc2)ccc1NS(=O)(=O)c1ccc(Br)cc1F" ? > 900 µg/mL

====

Assay: Inhibition of HCV genotype 1b isolate BK NS5B Cdelta21 RNA dependent RNA polymerase using [3H]UTP as substrate incubated for 25 mins prior to substrate addition measured after 120 mins by scintillation proximity assay
Design: species or system Hepatitis C virus (isolate BK)
reportedMetric: pIC50
Lab note — pIC50 values are minus log10 of concentrations in M.

{"smi": "O=C(O)c1ccc(Cl)cc1NS(=O)(=O)c1cc(Cl)c(Cl)cc1Cl", "reportedMetric": "pIC50", "valueReported": 4.96}
{"smi": "Cc1ccc(S(=O)(=O)Nc2ccc(Oc3ccccc3)cc2C(=O)O)cc1", "reportedMetric": "pIC50", "valueReported": 7.07}
{"smi": "O=C(O)c1cc(Br)ccc1NS(=O)(=O)c1ccc(Br)s1", "reportedMetric": "pIC50", "valueReported": 5.21}
{"smi": "O=C(O)c1cc(Br)ccc1NS(=O)(=O)c1ccc(Cl)c(Cl)c1", "reportedMetric": "pIC50", "valueReported": 5.08}

Could you share which pIC50 value was measured for "O=C(O)c1cc(Br)ccc1NS(=O)(=O)c1ccccc1" ? 4.37

Could you share which pIC50 value was measured for "O=C(O)c1ccc(Cl)cc1NS(=O)(=O)c1ccc(Br)s1" ? 5.34

Could you share which pIC50 value was measured for "O=C(O)c1ccc(Oc2ccccc2)cc1NS(=O)(=O)c1ccc(Br)cc1F" ? 6.51

Could you share which pIC50 value was measured for "O=C(O)c1ccccc1NS(=O)(=O)c1cc(Cl)c(Cl)cc1Cl" ? 4.59

Could you share which pIC50 value was measured for "Cc1ccc(S(=O)(=O)Nc2cc(Oc3ccccc3)ccc2C(=O)O)cc1" ? 7.14

====

// reported half-life at 10 µM for each item listed
Assay: Half life in human liver microsomes at 10 uM
Format: ADME, Microsome
Write the number in min without appending the unit.

Known results for molecules:
{"smi": "Cc1ccc(S(=O)(=O)Nc2ccc(Oc3ccccc3)cc2C(=O)O)cc1", "half-life at 10 µM, min": 11}
{"smi": "Cc1ccc(S(=O)(=O)Nc2cc(Oc3ccccc3)ccc2C(=O)O)cc1", "half-life at 10 µM, min": 17}

Now look at this entry.
Could you share which half-life at 10 µM value was measured for "O=C(O)c1cc(Oc2ccccc2)ccc1NS(=O)(=O)c1ccc(Br)cc1F" ? 27

====

Assay: Permeability from apical to basal side of human Caco2 cells at pH 7.4
Format: ADME, cell-based
Settings: Caco-2, pH 7.4, read-out: permeability
// reported Papp A→B for each item listed
Write the number in ×10⁻⁶ cm/s without appending the unit.

{"smi": "Cc1ccc(S(=O)(=O)Nc2cc(Oc3ccccc3)ccc2C(=O)O)cc1", "resultUnits": "×10⁻⁶ cm/s", "valueReported": 2.4}

Now look at this entry.
Could you share which Papp A→B value was measured for "Cc1ccc(S(=O)(=O)Nc2ccc(Oc3ccccc3)cc2C(=O)O)cc1" ? 2.2

====

// reported pIC50 for each item listed
Assay: Inhibition of HCV genotype 1b isolate BK NS5B Cdelta21 RNA dependent RNA polymerase using [3H]UTP as substrate incubated for 25 mins prior to substrate addition measured after 120 mins by scintillation proximity assay
Set-up: species or system Hepatitis C virus (isolate BK)
Lab note — pIC50 values are minus log10 of concentrations in M.

Known results for compounds:
{"smi": "O=C(O)c1ccc(Cl)cc1NS(=O)(=O)c1cc(F)c(Br)cc1F", "reportedMetric": "pIC50", "valueReported": 5.17}
{"smi": "O=C(O)c1cc(-c2ccccc2)ccc1NS(=O)(=O)c1ccc(Br)s1", "reportedMetric": "pIC50", "valueReported": 5.43}
{"smi": "O=C(O)c1ccc(-c2ccccc2)cc1NS(=O)(=O)c1ccc(Br)s1", "reportedMetric": "pIC50", "valueReported": 5.17}
{"smi": "O=C(O)c1cc(Oc2ccccc2)ccc1NS(=O)(=O)c1ccc(Br)cc1F", "reportedMetric": "pIC50", "valueReported": 6.96}
{"smi": "Cc1cc(NS(=O)(=O)c2cc(Cl)c(Cl)cc2Cl)no1", "reportedMetric": "pIC50", "valueReported": 4.00}

Could you share which pIC50 value was measured for "O=C(O)c1cc(Br)ccc1NS(=O)(=O)c1cc(Cl)c(Cl)cc1Cl" ? 5.05

Could you share which pIC50 value was measured for "O=C(O)c1cc(Br)ccc1NS(=O)(=O)c1cc(F)c(Br)cc1F" ? 5.35

Could you share which pIC50 value was measured for "O=C(O)c1cc(Oc2ccccc2)ccc1NS(=O)(=O)c1ccc(Br)s1" ? 6.26

Could you share which pIC50 value was measured for "O=C(O)c1ccc(Oc2ccccc2)cc1NS(=O)(=O)c1ccc(Br)s1" ? 6.21
